# EXPERIMENTAL_SYSTEM: PvPMT (Plasmodium vivax, UniProt A5K867)
# Sequence (A5K867 1-264): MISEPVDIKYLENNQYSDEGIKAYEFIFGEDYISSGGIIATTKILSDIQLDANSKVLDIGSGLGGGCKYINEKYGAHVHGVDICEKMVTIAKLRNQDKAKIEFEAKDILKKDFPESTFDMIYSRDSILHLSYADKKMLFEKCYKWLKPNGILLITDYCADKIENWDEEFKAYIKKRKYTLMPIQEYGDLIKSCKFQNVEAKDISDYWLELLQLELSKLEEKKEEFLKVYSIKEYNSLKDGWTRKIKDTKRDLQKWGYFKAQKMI
# ASSAY_METHOD_TEXT: radiometric PMT transmethylation assay, inhibition of PvPMT
# Type: biochemical
# STATED_CONDITIONS: P-Etn 2 mM, SAM 1.5 mM; inhibitor 0, 100, 500, 1000 μM; read-out: IC50, inhibition of PvPMT activity
MEASURED_METRIC: IC50
Give me the value, and tack the unit on after it.

Provide only the value of recorded IC50 for CCN(CC)Cc1cc(Nc2ccnc3cc(Cl)ccc23)ccc1O [AQ, amodiaquine] 220 µM
